target: MERTK (UniProt Q12866); test: phosphorylation enrichment, bacterial display (enrichment ratio); higher = better substrate or ligand; peptides without Tyr show the background;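 note: 11-residue human phosphosite peptides and single-mutation variants displayed on the E. coli surface, counted by deep sequencing, each peptide's frequency after selection divided by its frequency in the unselected input library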;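 note: frequency after pTyr selection over input frequency; kinase dosed for 20-30% of maximal phosphorylation in three min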
Sequence (Q12866 whole entry, looked up): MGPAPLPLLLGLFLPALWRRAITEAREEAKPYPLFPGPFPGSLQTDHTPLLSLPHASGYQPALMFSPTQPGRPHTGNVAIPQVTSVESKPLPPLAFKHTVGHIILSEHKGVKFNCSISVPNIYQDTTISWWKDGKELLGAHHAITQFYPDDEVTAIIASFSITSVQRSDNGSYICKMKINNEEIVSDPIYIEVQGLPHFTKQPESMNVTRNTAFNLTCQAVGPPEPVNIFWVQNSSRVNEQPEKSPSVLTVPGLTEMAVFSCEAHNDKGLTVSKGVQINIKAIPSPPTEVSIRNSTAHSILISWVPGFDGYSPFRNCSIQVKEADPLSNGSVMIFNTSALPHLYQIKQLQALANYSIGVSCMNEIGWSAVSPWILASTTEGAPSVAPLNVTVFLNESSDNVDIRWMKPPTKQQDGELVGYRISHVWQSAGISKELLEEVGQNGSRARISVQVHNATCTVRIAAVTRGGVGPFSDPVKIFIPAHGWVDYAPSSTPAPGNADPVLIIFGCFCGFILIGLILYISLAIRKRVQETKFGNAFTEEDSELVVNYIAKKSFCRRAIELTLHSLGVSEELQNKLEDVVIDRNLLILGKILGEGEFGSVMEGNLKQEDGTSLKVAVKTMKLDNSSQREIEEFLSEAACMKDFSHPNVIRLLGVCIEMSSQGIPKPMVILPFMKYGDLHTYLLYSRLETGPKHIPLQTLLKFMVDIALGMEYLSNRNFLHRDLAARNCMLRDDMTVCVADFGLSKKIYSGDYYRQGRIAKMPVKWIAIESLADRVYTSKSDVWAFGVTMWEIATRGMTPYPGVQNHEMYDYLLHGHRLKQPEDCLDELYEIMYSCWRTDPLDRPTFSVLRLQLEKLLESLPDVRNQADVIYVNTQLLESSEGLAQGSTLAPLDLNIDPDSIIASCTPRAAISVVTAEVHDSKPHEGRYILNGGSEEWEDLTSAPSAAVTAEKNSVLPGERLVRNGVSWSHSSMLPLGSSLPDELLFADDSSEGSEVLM
Record Fulfilled whenever phosphorylation enrichment is at 0.4 or higher; record Not fulfilled when lower.

Use the examples below as a reference point.
item_sequence="QMIETYFDFRV [NSMF_Y506_L511V]" assigned_class=Fulfilled
item_sequence="GRLFAYPDTHC [CAT_Y358_R363C]" assigned_class=Fulfilled
item_sequence="GRVLGYGAFGK [FLT4_Y853]" assigned_class="Not fulfilled"
item_sequence="SKGYAYVHFDS [PABPC5_Y149]" assigned_class="Not fulfilled"

Please check the record MAYDRYAAICS [OR8H2_Y123_H120Y] and state if its phosphorylation enrichment is at or above 0.4.
Fulfilled

Please check the record LARDMYDKEYY [MET_Y1230] and state if its phosphorylation enrichment is at or above 0.4.
Fulfilled

Please check the record SRIWVYNHYRC [BRCA2_Y2621_W2626C] and state if its phosphorylation enrichment is at or above 0.4.
Not fulfilled
